System: male CF1 mice
assay-notes: Hypolipidemic activity in CF1 mice, intraperitoneal dosing (serum cholesterol and triglyceride)
Type: in vivo
run-parameters: Mus musculus, ip, 384 h; Table II; 8 mg./kg./day i.p., male CF1 mice, day 16; read-out: Serum Cholesterol Day 16
experimental-endpoint: response vs control in vivo at 8 mg/kg (%)
Write down the numeric answer in % and omit the unit.

>  <molecule>
[BH3-][N+](C)(C)CCCCCC [X, N-- -n-hexyl-N,N--dimethylamine borane]

>  <study-system>
male CF1 mice

>  <response vs control in vivo at 8 mg/kg / %>
69

$$$$
>  <molecule>
[BH3-][N+](C)(C)CCCCCCCCCC [XII, N--decyl-N,N--dimethylamine borane]

>  <study-system>
male CF1 mice

>  <response vs control in vivo at 8 mg/kg / %>
77

$$$$

With those in mind, consider the next molecule.
The molecule listed as [BH3-][N+](C)(C)CCCCCCCCCCCCCC [VII, N--tetradecyl-N,N--dimethylamine borane] shows response vs control in vivo at 8 mg/kg equal to 67

Reference source: patent US4740504A
